- Test system: wheat (Triticum aestivum)
- method summary: Post-emerge test, crop damage wheat
- Format: in vivo
- condition label: post-emerge, 250 g ai/ha, 14 days after application, rating scale 0-100 (0 no damage, 100 complete death)
- Description: A standard greenhouse herbicide activity screening system was used to evaluate the herbicidal efficacy and crop safety of these test compounds. […] At 14 days after application of the test materials, phytotoxicity ratings were recorded. […]
readout kind: Post-emerge crop damage WHEAT (phytotoxicity rating)
Numbers only.

Reference set (3 entries):
Cn1nc(-c2c(F)cc3c4c2NC(=O)C(Cl)N4C(=O)CO3)c(Cl)c1OC(F)F (stereo not shown) ... 0
C[C@@H]1Oc2cc(F)c(-c3nn(C)c(C(F)(F)F)c3Cl)c3c2N(CC(=O)N3)C1=O ... 50
CC1C(=O)Nc2c3c(cc(F)c2-n2c(=O)cc(C(F)(F)F)n(C)c2=O)OCC(=O)N31 (stereo not shown) ... 25

In the following, a different compound is considered.
Lab note: compound "O=C1CN2C(=O)COc3cc(F)c(-n4nnn(CCCF)c4=O)c(c32)N1" tested on wheat (Triticum aestivum); recorded Post-emerge crop damage WHEAT (phytotoxicity rating) was 0
